assay target: T1, human G-CSF receptor (human, UniProt Q99062 25-836)
T1 sequence (looked up): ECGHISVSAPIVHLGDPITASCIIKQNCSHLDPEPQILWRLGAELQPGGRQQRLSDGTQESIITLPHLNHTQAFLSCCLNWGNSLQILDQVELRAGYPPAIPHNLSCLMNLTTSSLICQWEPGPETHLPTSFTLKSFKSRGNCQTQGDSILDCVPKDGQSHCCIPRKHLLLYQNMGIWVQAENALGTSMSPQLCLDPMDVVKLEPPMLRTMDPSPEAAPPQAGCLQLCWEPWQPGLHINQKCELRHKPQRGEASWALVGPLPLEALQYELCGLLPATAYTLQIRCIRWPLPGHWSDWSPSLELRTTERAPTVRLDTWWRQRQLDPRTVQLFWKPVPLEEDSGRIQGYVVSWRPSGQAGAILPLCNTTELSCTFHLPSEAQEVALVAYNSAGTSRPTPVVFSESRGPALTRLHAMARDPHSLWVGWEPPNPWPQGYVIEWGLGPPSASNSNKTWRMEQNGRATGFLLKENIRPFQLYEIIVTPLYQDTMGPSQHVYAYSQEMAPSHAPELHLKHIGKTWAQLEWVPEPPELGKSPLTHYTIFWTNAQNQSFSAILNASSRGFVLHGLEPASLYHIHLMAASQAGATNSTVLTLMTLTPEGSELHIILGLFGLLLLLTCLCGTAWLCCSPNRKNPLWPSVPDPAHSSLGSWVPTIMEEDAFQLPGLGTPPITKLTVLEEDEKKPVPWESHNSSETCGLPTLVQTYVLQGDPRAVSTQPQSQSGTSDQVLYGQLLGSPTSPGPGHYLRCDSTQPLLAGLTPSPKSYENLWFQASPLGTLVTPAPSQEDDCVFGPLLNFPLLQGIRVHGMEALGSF
experiment: cell-based or functional assay
# EC50 (% of hG-CSF) non-conjugated per entry

Field: example entries. Status: answers known.
G-CSF variant 16R, non-conjugated (ligand) TPLGPASSLPQSFLLRCLEQVRKIQGDGAALQEKLCATYKLCHPEELVLLGHSLGIPWAPLSSCPSQALQLAGCLSQLHSGLFLYQGLLQALEGISPELGPTLDTLQLDVADFATTIWQQMEELGMAPALQPTQGAMPAFASAFQRRAGGVLVASHLQSFLEVSYRVLRHLAQP
100 % of hG-CSF
G-CSF variant K16/34/40R Q90K, non-conjugated (ligand) TPLGPASSLPQSFLLRCLEQVRKIQGDGAALQERLCATYRLCHPEELVLLGHSLGIPWAPLSSCPSQALQLAGCLSQLHSGLFLYQGLLKALEGISPELGPTLDTLQLDVADFATTIWQQMEELGMAPALQPTQGAMPAFASAFQRRAGGVLVASHLQSFLEVSYRVLRHLAQP
30 % of hG-CSF

Sample G-CSF variant K16/34/40R Q70K Q90K T105K, non-conjugated (ligand) TPLGPASSLPQSFLLRCLEQVRKIQGDGAALQERLCATYRLCHPEELVLLGHSLGIPWAPLSSCPSQALKLAGCLSQLHSGLFLYQGLLKALEGISPELGPTLDKLQLDVADFATTIWQQMEELGMAPALQPTQGAMPAFASAFQRRAGGVLVASHLQSFLEVSYRVLRHLAQP — what was its EC50 (% of hG-CSF) non-conjugated?
10 % of hG-CSF
